# Target of assay: Peroxisome proliferator-activated receptor alpha (Homo sapiens)
# Method description: qHTS assay for small molecule agonists of the peroxisome proliferator-activated receptor alpha (PPARalpha) signaling pathway (AID 651778); note: % of control where 0% means no effect
# Assay context: PathHunter PPARalpha complementation, chemiluminescence, 6 h; hits give high values
Value kind: max response (%)
Value expressed in %; do not type the unit.

Task item: Record lookup: for Peroxisome proliferator-activated receptor alpha (Homo sapiens), what max response belongs to Cc1ccc(N=Nc2c(O)ccc3ccccc23)c([N+](=O)[O-])c1 ?
Reply: 0.597

Task item: What measured max response is associated with Cn1sccc1=O on Peroxisome proliferator-activated receptor alpha (Homo sapiens)?
Reply: -2.31

Task item: Look up max response with Peroxisome proliferator-activated receptor alpha (Homo sapiens) for this compound: C[Si](Cl)(Cl)[Si](C)(Cl)Cl
Reply: -2.05

Task item: # get_value(readout= max response, system= Peroxisome proliferator-activated receptor alpha (Homo sapiens)) for NCCCCCCCCCCC(=O)O
Reply: -1.64

Task item: What measured max response is associated with O=C(Cl)c1cc(Cl)cc(Cl)c1 on Peroxisome proliferator-activated receptor alpha (Homo sapiens)?
Reply: -3.03

====

# Method description: qHTS for Inhibitors of Ubiquitin-specific Protease USP2a Using CHOP2 as the Reporter: Cytotox Assay (AID 652170); note: nearly all actives have a fitted effect of over 70% in size
# Assay context: HCT116 viability, CellTiter-Glo luminescence, 72 h; series mostly up to 46.1 µM
Records with an inconclusive call do not appear. Active and inactive are the calls of the source. Calls follow the shape of the dose curve; as a rule, active = well fitted cell-killing curve with a large enough effect; inconclusive = small, poorly fitted or top-dose-only effect, or effect the other way; inactive = flat fitted curve, though single readings scatter.
The reply should be one of these categories: TRUE (active), FALSE (inactive)

Task item: What classification did Cc1ccc(-c2cc(C(=O)Nc3ccncc3)c3ccccc3n2)cc1C end up with in this test?
Reply: TRUE

Task item: In this assay, the call recorded for CCCc1ccc(C(=O)Nc2ccc(S(=O)(=O)Nc3nccs3)cc2)cc1 was what?
Reply: FALSE

Task item: Recorded test outcome, item Cc1ccc(-c2cc(C(=O)Nc3cccnc3)c3ccccc3n2)cc1C
Reply: FALSE

Task item: Name the outcome recorded for CCCc1ccc(-c2csc(NC(=O)c3ccncc3NS(=O)(=O)c3ccc(C)cc3)n2)cc1 in the assay.
Reply: TRUE

Task item: Record lookup: outcome of this test for Cc1ccc(S(=O)(=O)Nc2ccccc2Nc2nc(-c3ccccc3)cs2)cc1 ?
Reply: FALSE

Task item: What did the test return for Cc1ccc(-c2cc(C(=O)Nc3cccc(S(=O)(=O)Nc4nccs4)c3)c3ccccc3n2)cc1C ?
Reply: FALSE

Task item: Could you kindly confirm the outcome this assay logged for Cc1ccc(S(=O)(=O)Nc2cnccc2C(=O)Nc2nc(-c3cccnc3)cs2)cc1 ?
Reply: FALSE

Task item: Hello, I am checking results. What call was entered for CCc1ccc(S(=O)(=O)Nc2cnccc2C(=O)Nc2nc(-c3ccccc3)cs2)cc1 ?
Reply: TRUE

Task item: Please state the recorded outcome for this compound: Cc1ccc(-c2cc(C(=O)Nc3ccc(S(=O)(=O)Nc4ccncc4)cc3)c3ccccc3n2)cc1C
Reply: FALSE

====

# Test system: CP250
# Method description: qHTS profiling for inhibitors of Plasmodium falciparum proliferation (AID 504749); note: nearly all actives have a fitted effect of over 60% in size
# Assay context: P. falciparum in erythrocytes, SYBR Green DNA, 72 h; series mostly up to 28.7 µM
Results filed as inconclusive are left out. Activity calls are given as the source filed them. Calls follow the shape of the dose curve; as a rule, active = well fitted inhibition curve with a large enough effect; inconclusive = small, poorly fitted or top-dose-only effect; inactive = flat fitted curve, though single readings scatter. Square brackets hold non-standard residues; d marks the D form. Peptide text beside a SMILES is read from it. Orn = NCCC[CH](N)C(=O)O
Hello, when you answer, please use one of the following outcomes: yes (1) for active, no (0) for inactive

Task item: Could you please tell me the result logged for CCC(C)C1NC(=O)C(Cc2ccc(O)cc2)NC(=O)C(N)CSSCC(C(=O)N2CCCC2C(=O)NC(CC(C)C)C(=O)NCC(N)=O)NC(=O)C(CC(N)=O)NC(=O)C(CCC(N)=O)NC1=O (stereo unspecified) in this assay?
Reply: no (0)

Task item: Write down the call the test reported for this molecule. Item: CC(C)C(NC(=O)C(CC(=O)O)NC(=O)C(CCCCN)NC(=O)C(N)CCCN=C(N)N)C(=O)NC(Cc1ccc(O)cc1)C(=O)O (stereo unspecified) (H-RKDVY-OH; configuration not given here)
Reply: no (0)

Task item: Can you look up the reported call for CCOC(=O)C(CS)NCCN[C@@H](CS)C(=O)OCC (stereo partly specified) for me?
Reply: no (0)

Task item: // outcome(item) with item = O=C1/C(=C\c2cccs2)CCC/C1=C/c1cccs1
Reply: no (0)

Task item: What is the recorded call for this molecule in the test? CC(C)C[C@H](NC(=O)[C@@H](Cc1c[nH]c2ccccc12)NC(=O)[C@@H](Cc1ccc(O)cc1)NC(=O)[C@@H](CO)NC(=O)[C@@H](Cc1c[nH]c2ccccc12)NC(=O)C(Cc1cnc[nH]1)NC(=O)C1CCC(=O)N1)C(=O)N[C@@H](CCCN=C(N)N)C(=O)N1CCC[C@@H]1C(=O)NCC(N)=O (stereo partly specified)
Reply: no (0)

Task item: Could you kindly confirm the outcome this assay logged for CC(C)CC1NC(=O)C(CCCN)NC(=O)C(C(C)C)NC(=O)C2CCCN2C(=O)C(Cc2ccccc2)NC(=O)C(CC(C)C)NC(=O)C(CCCN)NC(=O)C(C(C)C)NC(=O)C2CCCN2C(=O)C(Cc2ccccc2)NC1=O (stereo unspecified) (cyclo(FPV[Orn]LFPV[Orn]L); configuration not given here) ?
Reply: yes (1)

Task item: For CNCC(=O)NC(CCCN=C(N)N)C(=O)NC(C(=O)NC(Cc1ccc(O)cc1)C(=O)NC(C(=O)NC(Cc1cnc[nH]1)C(=O)N1CCCC1C(=O)NC(C)C(=O)O)C(C)C)C(C)C (stereo unspecified) , which call appears in the assay record?
Reply: no (0)

Task item: Returns: the outcome recorded for CC(=O)OCC(=O)[C@@]1(O)CCC2C3CCC4=CC(=O)CC[C@]4(C)C3=CC[C@@]21C (stereo partly specified) in this assay.
Reply: no (0)

Task item: Just curious, what result did CC(N)C(=O)NCC(=O)NC1CSSCC(C(=O)O)NC(=O)C(CO)NC(=O)C(C(C)O)NC(=O)C(Cc2ccccc2)NC(=O)C(C(C)O)NC(=O)C(CCCCN)NC(=O)C(Cc2c[nH]c3ccccc23)NC(=O)C(Cc2ccccc2)NC(=O)C(Cc2ccccc2)NC(=O)C(CC(N)=O)NC(=O)C(CCCCN)NC1=O (stereo unspecified) get here?
Reply: no (0)

Task item: Given CC1(C)C(/C=C/C=C/C=C/C=C2\N(CCCCS(=O)(=O)O)c3ccc4ccccc4c3C2(C)C)=[N+](CCCCS(=O)(=O)[O-])c2ccc3ccccc3c21 , state the outcome it received in this test.
Reply: no (0)

Task item: // outcome(item) with item = CCC(Oc1ccccc1)C(=O)NC1C(=O)N2C1SC(C)(C)C2C(=O)O (stereo unspecified)
Reply: no (0)

====

# Target of assay: Cytochrome P450 3A4 (Homo sapiens) (UniProt P08684)
# Sequence (P08684 whole entry, looked up): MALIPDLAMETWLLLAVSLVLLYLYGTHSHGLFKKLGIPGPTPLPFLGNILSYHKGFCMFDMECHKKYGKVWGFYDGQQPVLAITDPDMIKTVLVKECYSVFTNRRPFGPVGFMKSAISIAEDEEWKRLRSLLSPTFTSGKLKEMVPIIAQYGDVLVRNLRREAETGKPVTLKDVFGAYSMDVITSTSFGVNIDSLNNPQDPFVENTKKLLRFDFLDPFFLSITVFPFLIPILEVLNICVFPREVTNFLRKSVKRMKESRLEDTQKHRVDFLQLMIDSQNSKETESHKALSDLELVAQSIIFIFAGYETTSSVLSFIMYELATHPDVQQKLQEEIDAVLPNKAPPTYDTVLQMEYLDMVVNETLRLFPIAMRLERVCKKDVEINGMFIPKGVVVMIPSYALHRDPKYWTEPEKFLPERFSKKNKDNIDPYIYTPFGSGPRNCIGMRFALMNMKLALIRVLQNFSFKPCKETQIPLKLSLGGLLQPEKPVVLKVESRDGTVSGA
# Method description: qHTS Assay for Activators of Cytochrome P450 3A4 (AID 885); note: nearly all actives have a fitted effect of over 65% in size
# Assay context: recombinant CYP3A4, Luciferin-PPXE luminescence, 60 min; series mostly up to 57.1 µM
Calls of active or inactive are those of the source. The call rests on the fitted dose curve; in most records, active means well fitted activation curve with a large enough effect; inconclusive means small, poorly fitted or top-dose-only effect; inactive means no such curve, though single readings can be large or run the other way.
Value kind: activity change, positive = activation

// known answers, use as guide
Task item: So what does the record say about activity change, positive = activation for CC(=O)c1ccc(OC2C=CC(C#Cc3ccc(Br)cc3)OC2CO)cc1 (stereo not drawn) ?
Reply: -77.6% [at 11.4 µM] (inactive)

Task item: // query activity change, positive = activation value for entry COC(=O)c1ccc(C(NC(=O)OCc2ccccc2)/C(=C/[C@@H](C)C(=O)N(C)Cc2cccnc2)c2cccnc2)cc1 (stereo partly drawn)
Reply: inactive

Task item: Can you share its activity change, positive = activation? I mean this molecule: C=CCOC(=O)C(C(C)=O)C(NC(=O)OC)c1cccc(C(F)(F)F)c1 (stereo not drawn)
Reply: -104% [at 11.4 µM] (inactive)

Task item: For the molecule shown here, CC(C)NC(=O)[C@H]1C[C@@H]1[C@H](NC(=O)OCc1ccccc1)c1ccccc1 , give the reported activity change, positive = activation.
Reply: inactive

Task item: # query: activity change, positive = activation of entry CCCCCCC(=O)Cc1cc(OC)c(OC)cc1C=C(C(=O)OCC)C(=O)OCC
Reply: -90.7% [at 11.4 µM] (inactive)

Task item: GET /values?readout=activity change, positive = activation&item= COC(=O)c1c(C)cc(O)cc1O
Reply: inactive

Task item: Recorded activity change, positive = activation for O=C(O)[C@H]1[C@H]2C[C@H]3c4[nH]c5ccccc5c4CCN3C[C@@H]2CC[C@@H]1O , please?
Reply: inactive

# ---- query molecule ----
Task item: So what does the record say about activity change, positive = activation for CC(=O)OC[C@H]1O[C@@H](O/N=C(\C)CCN2CCCc3nc(C)c(C)cc32)[C@H](OC(C)=O)[C@@H](OC(C)=O)[C@H]1OC(C)=O ?
Reply: -36.5% [at 11.4 µM] (inactive)
